Just for reference, paper PMC7826789 is where these values come from.

# System: MAP3K1;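 note: KINOMEscan scanMAX binding as percent activity remaining versus control; lower means stronger binding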
# PROTOCOL_CONDITIONS: Compound Concentration (nM):1000
READOUT_TYPE: Percent Control (%)

INSERT INTO measurements (molecule, readout_number) VALUES
  ('O=C1Nc2ccc(C(=O)c3ccco3)cc2C1=Cc1cc(Cl)c(O)c(Cl)c1 [GW406108X]', 63),
  ('NS(=O)(=O)c1ccc(N/N=C2\C(=O)Nc3ccc(C(=O)NCc4ccncc4)cc32)cc1 [GW300657X]', 67),
  ('O=C(Nc1n[nH]c2nc(-c3ccc(O)cc3)c(Br)cc12)C1CC1', 60),
  ('NS(=O)(=O)c1ccc(Nc2ncc(-c3ccccc3)o2)cc1 [GW572399X]', 59),
  ('CC1=C(C(=O)Nc2ccc3[nH]ncc3c2)C(c2ccc3ccccc3c2)CC(=O)N1 (stereo not drawn) [GSK270822A]', 68),
  ('CCS(=O)(=O)c1ccc(OC)c(Nc2ncc(-c3cccc(OC)c3)o2)c1 [GW580509X]', 68);
